These entries and their values trace back to the domain aggregation screens of Martell et al. (2025).

Assay: soluble fraction after stress (log2 fold change); higher = more stays soluble; pooled small domains, quantitative proteomics
Conditions: stress: 50 degC
ASSAY_ENDPOINT: soluble fraction (log2)
One number for each entry.

As a guide, the following entries are already answered.
Consider the sequence shown here: HMARDPWDVLGVAKTATNDEIKRAFKRQAMMTHPDKQGGSEERFKEVNEAYSHIKDEQSRAKYQNSQ What is its recorded soluble fraction (log2)? 0.238

Consider the sequence shown here: HMPELPEVETSRRGIEPHLVGATILHAVVRNGRLRWPVSEEIYRLSDQPVLSVQRRAKYLLLELQA What is its recorded soluble fraction (log2)? 0.0555

Consider the sequence shown here: HMDKVSYALGLGIGRQLTDMGAKDLNIDDFAQAIKDVLAGGEVKLSDAEAQTIVRNFFDEQEKKQRA What is its recorded soluble fraction (log2)? -0.0034

Consider the sequence shown here: HMLNQIGVSQKEFDQIHTAIKIALKTSSLTPTGITEKLPKFPPEKTADILRWMADNKEVLLNSEEKYELKT What is its recorded soluble fraction (log2)? -0.0315

Consider the sequence shown here: HMTKQRSIILDLLKANQDRHLTAEEMLELLNQNHTPVSKATLYRYLDMLVSQNAVRKFIIDDQPSAGYQYL What is its recorded soluble fraction (log2)? -1.34

Consider the sequence shown here: HMRLANGIGTVYKLSGNRRNPYIVRKTTGWEIDEESGKAKQKYITIGYAPTRAKGLEMLMDYNKNP What is its recorded soluble fraction (log2)? -0.428

Hi! Can you tell me soluble fraction (log2) for each of these sequences?
1. HMKEVELENMIKAKGFKDAAVLVDERSVTVIVESERLAAGDSASIKELVSRGTGVDPQNVVII
2. HMSLEDYVIIKNKTVKVYETEFDGAPVVTSSSVGQKLILVEYNDNFAKILYRAKDGLDYVGYIKRKDVYVR
3. HMDPPVDLTPREQQVLSRIALGMSDKAIAAELGVSHQTVRNHVARIYAKIKVHSRSQAIVWAREKGIP
4. HMIKDSKAAYKILGVDENATNEEIKKAYRQLVINHHPDKVSHLGEDIQRAANEKLKQINAAYDEIKKQRGF
5. HMDLYIILGLERSATLSDVRRAYRRLARKYHPGINPGDRNSASVFTRVSEAYQVLSDPEQRRRYDSR
6. HMGGEKLPAPVAGTLLRYSVAEGARVSEGQTVIILESMKMELEINTPKAGVIHFLAAVGAQVAEGDTLAEI
7. HMQTLGADLRALRKARGLTLTDMAETLGRSVGWLSQVERDLSEPSITDLRHMARTLGVSVSMLFS

1. -0.107
2. -2.4
3. -0.185
4. 0.237
5. -2.81
6. -1.82
7. -1.41

Hi! Can you tell me soluble fraction (log2) for each of these sequences?
1. HMNDRERIGKRIAQLRMEAGISQYKLAELTGLAPGNIARIETGKYSTGIDILSKIGDALGYQLDFI
2. HMYHPGFEALREVARQGSFIKAARALGISGPAVSKQIKSLEARLNLVLLHRTTRAVTLTEAGQRLTEILD
3. HMSSKAVLEKFEALFIDQMLQSMRKATVRSELFDSEGIKLYESLFDKEISEELAKSGGLGLTKDLEQQL
4. HMNDLKEDTITVQSVEYIDSDDGTMVYIKDTNHQVYKQAFKEDESLIRISAGDVLHVKYQPMDNEIHLL

1: -1.04; 2: -2.07; 3: -0.888; 4: -0.364

Hi! Can you tell me soluble fraction (log2) for each of these sequences?
1. HMKMTIEDLITQAKESNAAENYYEAFQLYSKAIDVLPNDPDLYSARGVVLFHLDRKEDSLIDMNKSVD
2. HMRSAKEYKAIREEIYRFIGAYITKHVYAPSNKEIAEAVGISGTTVHRHLIDMIDEGILETD
3. HMAMDSGELEAIVDRLISEHPDDWAALTAGDDRERKKKSGFFVGEVMKATRGQADGRAVIELLASRSA
4. HMRQHHMIISTKLGTPKEELAKLVSGFEDQGLRVSVITGTDYTVIGLVGDTTHLDEKRIRANPYVDNVQRV

[-0.2, -2.56, 0.00605, -0.0184]

Hi! Can you tell me soluble fraction (log2) for each of these sequences?
1. HMDLSYPFTTVTTDNVNMRRSASSSSVVLERIDKGDSITVLGTSGNYYKVSYNDRTGYVLKQYVDVSAATT
2. HMDYNMEEWSLTADQLKSGDTILILNLGKTATLLESTRGKKNVRVRMGNIKTIVETSSIRGNPHQ
3. HMNNFTPEHLEKDIEGSLFFRRLKETAREEPGSLTVAQKDFIQMWHDQADGVYTLRQVFVQTAFDHVRSL
4. HMEKIELKTVIPENLKKKRLDFALSELFPEHSRSRIQSWIKEGSVMVNSKNYRQRDLVDAGDVVEINTEQK

1. -0.173
2. -0.878
3. 0.1
4. 0.236

Hi! Can you tell me soluble fraction (log2) for each of these sequences?
1. HMTSQVTVHVVGAVEKPGVVTLDAPSRVQDALEAAGGALPEAELSGVNLARELFDGEQIVVPAQGEDV
2. HMKTATAKIKATPFGWLRVRETPSLNGAEIARVNSGESYKILERGEGWIKIKVSDTVEGWVSEAYVELS
3. HMSSPVGIAQATTYVYVRAGHSMQAAKVGVLSPGEKVGVTGRSAQGFSEVVYNGVHRWVGSRYLSPT
4. HMNNMVNTLLKLLAEQDVLRGIVRRFTPSSVFVFLQNEEVEVELPLQGRSLAPGQLVELTQEGASVALKRL
5. HMRYWVKSETDFLIENRGKYSYQEFADMLGRSYAVVYDKMHQLKIDYTKEELEIFDEKHKAQMREKQQR

-0.0113
-0.102
-1.4
-0.647
-1.52

Hi! Can you tell me soluble fraction (log2) for each of these sequences?
1. HMNTEEKILEKEFLMLYSELGLQPKNIYELMENTGLKYEKLVEMLLQLQLKGLVEQPSYNYYSRL
2. HMIINLGELLKMLEVNKYQDAMDALDSLIEEGGSLEKIESLHEIRQHTHAMNFREAERLLSILIESEGA
3. HMEVTLTLKSFGTAKVAVIKAIQSITGLGLMDAKKLVDAAPSVIKEKISPSEAEQYKKTLVDAGAEVEI

-1.02
-0.746
-0.806
